# Test system: Vero-E6
# procedure_text: primary screen, phospholipidosis by LipidTOX staining; higher = more effect of the substance
# measurement_conditions: 10 µM
Hit rate of the full screen: of about 5,400 compounds, about 190 (3.5%) showed an effect of 50% or more. The sample as a whole holds a higher share of strong results than the screen did.
Let's look at some compounds and their measured result_ITMP.

compound | result_ITMP / %
CN1CC[C@@H]2CN3CCc4cccc(c43)[C@@H]2C1 | 5.83
COc1ccc2c(c1)CN(C)CC2c1ccc(Cl)c(Cl)c1 (centres unmarked) | 12.7
CCCCN(CCCC)CC(O)c1cc(Cl)cc2c1-c1ccc(Cl)cc1/C2=C/c1ccc(Cl)cc1 (centres unmarked) | -0.63
OC[C@H]1O[C@@H]2O[C@H]3[C@H](O)[C@@H](O)[C@@H](O[C@H]4[C@H](O)[C@@H](O)[C@@H](O[C@H]5[C@H](O)[C@@H](O)[C@@H](O[C@H]6[C@H](O)[C@@H](O)[C@@H](O[C@H]7[C@H](O)[C@@H](O)[C@@H](O[C@H]8[C@H](O)[C@@H](O)[C@@H](O[C@H]1[C@H](O)[C@H]2O)O[C@@H]8CO)O[C@@H]7CO)O[C@@H]6CO)O[C@@H]5CO)O[C@@H]4CO)O[C@@H]3CO | -4.2
O=S(=O)([O-])CCSSCCS(=O)(=O)[O-] | -11.7
COc1cccc(CCc2ccccc2OCC(CN(C)C)OC(=O)CCC(=O)O)c1 (centres unmarked) | 64.3
CN1CCN(C(c2ccccc2)c2ccc(Cl)cc2)CC1 (centres unmarked) | 44.4
O=C([O-])C(O)Cc1ccc(O)c(O)c1 (centres unmarked) | 1.45

----------
# Test system: Vero-E6
# procedure_text: primary screen, phospholipidosis by LipidTOX staining; higher = more effect of the substance
# measurement_conditions: 10 µM
Screen size: about 5,400 compounds; about 190 (3.5%) showed an effect of 50% or more. For the sample, strong results were picked, then their nearest neighbours and some compounds at random.
Let's look at some molecules and their measured result_ITMP.
observation_type: result_ITMP (%)

molecule | assay_value
Cc1cccc(C)c1-n1c(=O)c2cnc(Nc3ccc(N4CCN(C)CC4)cc3)nc2n2c3ccccc3nc12 | 81.7
CC(=O)O[C@H]1CC[C@@]2(C)C(=CCC3C2CC[C@]2(C)C(=O)CCC32)C1 (stereo partly shown) | 0.97
CO[C@@H]1[C@H](OC(=O)NC(=O)CCl)CC[C@]2(CO2)[C@H]1[C@@]1(C)O[C@@H]1CC=C(C)C | 16.1
COc1cc[nH]c2ncc(C(=O)C(=O)N3CCN(C(=O)c4ccccc4)C[C@H]3C)c1-2 | -6.29
O=C([O-])c1ccccc1-c1c2cc(I)c(=O)c(I)c-2oc2c(I)c([O-])c(I)cc12 | 7.91
O=C(O)c1cnn(-c2nc3cc(Cl)c(OC(F)(F)F)cc3[nH]2)c1 | -2.3
O=C(O)C[CH2][Ge](=[O])[O][Ge](=[O])[CH2]CC(=O)O | -3.6
O=S(=O)(c1cccc2cnccc12)N1CCNCC1 | 0.47
CC(C)(O)CC(=O)[O-] | -6.24
CC1(C)[C@H]2CC[C@@]1(C)[C@H](O)[C@@H]2O | -3.19
Cn1cnc2c(NCc3ccccc3)nc(NCCO)nc21 | -1.91
c1ccc(CNc2ncnc3nc[nH]c23)cc1 | -8.79
CCCC(=O)c1cc(F)ccc1OCC(O)CNC(C)(C)C (stereo not shown) | 20.3
NC(N)=NCCNS(=O)(=O)c1cccc2cnccc12 | -3.17
C[C@@H]1CN(CCCn2c3ccccc3c3ccccc32)C[C@H](C)N1 | 99.9
CCOc1ccc(-c2ccc(Cn3c(CC(C)(C)C(=O)[O-])c(SC(C)(C)C)c4cc(OCc5ccc(C)cn5)ccc43)cc2)cn1 | 0.09
COc1cccc(C(=O)CCN[C@@H](C)[C@H](O)c2ccccc2)c1 | 1.52
C=C1/C(=C/C=C2\CCC[C@]3(C)[C@@H]([C@H](C)/C=C/[C@@H](C)C(C)C)CC[C@@H]23)C[C@@H](O)C[C@@H]1O | -2.6
COc1cccc([C@@H](C)NCCCc2ccccc2Cl)c1 | 70.1
C=CCn1c(=O)c2cnc(Nc3ccc(N4CCN(C)CC4)cc3)nc2n1-c1cccc(C(C)(C)O)n1 | 32.4
CC(=O)N[C@@H]1C[C@H](O)[C@@H](CO)O[C@H]1O[C@H]1[C@H](O)[C@@H](O)[C@H](O)O[C@@H]1C(=O)[O-] | -0.41
COc1cc(CN(CCN)C(=O)c2cccs2)ccc1OCc1ccccc1 | 85.4
O=C(O)Cc1ccc(OCc2ccccc2)c(Cl)c1 | 2.22
C[C@@H]1C[C@H]2[C@@H]3CCC4=CC(=O)C=C[C@]4(C)[C@@]3(Cl)[C@@H](O)C[C@]2(C)[C@@]1(O)C(=O)CCl | 0.3
CC(C)(C)c1ccc(-c2nc3cccc(N4CCN(Cc5ccc6nccnc6c5)CC4)c3[nH]2)cc1 | 5.05
CO[C@H]1/C=C/O[C@@]2(C)Oc3c(C)c(O)c4c(O)c(cc([O-])c4c3C2=O)NC(=O)/C(C)=C\C=C\C(C)[C@H](O)[C@@H](C)[C@@H](O)[C@@H](C)[C@H](OC(C)=O)[C@@H]1C (stereo partly shown) | -1.11
CN1CCN(c2ccc(Nc3ncc4cc(C#N)c(=O)n(C5CCCC5)c4n3)cc2)CC1 | -0.88
CCN(CC)CCO[C@H]1CC[C@@]2(C)C(=CC[C@@H]3[C@@H]2CC[C@]2(C)C(=O)CC[C@@H]32)C1 | 61
O=C([O-])P(=O)([O-])[O-] | -2.03
O=S(=O)(OC[C@H]1O[C@@](COS(=O)(=O)[O][Al]([OH])[OH])(O[C@H]2O[C@H](COS(=O)(=O)[O][Al]([OH])[OH])[C@@H](OS(=O)(=O)[O][Al]([OH])[OH])[C@H](OS(=O)(=O)[O][Al]([OH])[OH])[C@H]2OS(=O)(=O)[O][Al]([OH])[OH])[C@@H](OS(=O)(=O)[O][Al]([OH])[OH])[C@@H]1OS(=O)(=O)[O][Al]([OH])[OH])[O][Al]([OH])[OH] | 6.9
O=C([O-])C(O)C(O)C(O)C(O)CO (stereo not shown) | -6.08
CC(NCCC(c1ccccc1)c1ccccc1)c1ccccc1 (stereo not shown) | 43.7
C[C@@]12C[C@@]3(O)O[C@@H](O1)[C@]1(COC(=O)c4ccccc4)[C@H]3C[C@@]12O[C@@H]1O[C@H](CO)[C@@H](O)[C@H](O)[C@H]1O | -5.49
Cc1c(CN(C)C(=O)/C=C/C2=CNC3=NC(=O)CCC3=C2)oc2ccccc12 | -2.49

----------
Let's look at some compounds and their measured result_ITMP.
# Tested on: Vero-E6
# procedure_text: primary screen, phospholipidosis by LipidTOX staining; higher = more effect of the substance
# measurement_conditions: 10 µM
# From the text: To measure drug-induced PLD in Vero-E6 cells, we used the HCS LipidTOX Red Phospholipidosis Detection Reagent (Invitrogen, #H34351), which is non-toxic to cell growth and remains well retained after aldehyde fixation. […]
Screen size: about 5,400 compounds; about 190 (3.5%) showed an effect of 50% or more. The sample as a whole holds a higher share of strong results than the screen did.
observation_type: result_ITMP

compound | observation_type | assay_value
CS(=O)(=O)CCNCc1nc(-c2ccc3ncnc(Nc4ccc(OCc5cccc(F)c5)c(Cl)c4)c3c2)cs1 | result_ITMP | 2.46%
CCC(=O)O[C@H]1CCC2C3CCC4=CC(=O)CC[C@]4(C)C3CC[C@@]21C (stereo partly drawn) | result_ITMP | 5.62%
COc1ccccc1N1CCN(CCCCNC(=O)c2ccc(-c3ccc(C(C)=O)cc3)cc2)CC1 | result_ITMP | 6.35%
COc1ccc(NC(=O)c2ccc(-c3ccc(-c4noc(C)n4)cc3C)cc2)cc1OCCN(C)C | result_ITMP | 81.5%
COc1ccc(C(=O)NCc2ccc(OCCN(C)C)cc2)cc1OC | result_ITMP | 6.48%
C[C@H](CCC(=O)[O-])[C@H]1CCC2C3C(=O)CC4CC(=O)CC[C@]4(C)C3CC(=O)[C@@]21C (stereo partly drawn) | result_ITMP | 4.65%

----------
Let's look at some compounds and their measured result_ITMP.
# Tested on: Vero-E6
# procedure_text: primary screen, phospholipidosis by LipidTOX staining; higher = more effect of the substance
# measurement_conditions: 10 µM
Screen size: about 5,400 compounds; about 190 (3.5%) showed an effect of 50% or more. The full list was thinned out, with strong results kept by preference.

compound | system_name | result_ITMP, %
CCCCCCCCCC(=O)O[C@H]1CC[C@H]2[C@@H]3CCC4=CC(=O)CC[C@@H]4[C@H]3CC[C@]12C | Vero-E6 | -0.22
COc1cc(N2CCC(N(C)C)CC2)ccc1Nc1ncc(Cl)c(Nc2ccccc2P(C)(C)=O)n1 | Vero-E6 | 51.8
C[C@H](Nc1ncnc2[nH]cnc12)c1cc2ccc(F)cc2nc1-c1ccccn1 [R4A_0002240_001 / SPE_A58947127] | Vero-E6 | 4.77
CCCCc1oc2ccc(NS(C)(=O)=O)cc2c1C(=O)c1ccc(OCCCN(CCCC)CCCC)cc1 | Vero-E6 | 74.9
C[C@@H]1N=C(N)NC(N(C)C)=N1 | Vero-E6 | -2.11
NCCCCCC(O)(P(=O)([O-])O)P(=O)(O)O | Vero-E6 | -0.14
NCCC(Oc1ccc(C(F)(F)F)cc1)c1ccccc1 (centres unmarked) | Vero-E6 | 62.2
CCn1cc(C(=O)[O-])c(=O)c2cc3c(cc21)OCO3 | Vero-E6 | -4.34
COCCCC/C(=N\OCCN)c1ccc(C(F)(F)F)cc1 | Vero-E6 | 48.9
C[C@H](N)Cn1ccc2cc(F)c(Cl)cc21 | Vero-E6 | 50.7
c1ccc(CCCN2CCN(CCOC(c3ccccc3)c3ccccc3)CC2)cc1 | Vero-E6 | 15
CC[C@]1(O)C[C@H]2C[N@](CCc3c([nH]c4ccccc34)[C@@](C(=O)OC)(c3cc4c(cc3OC)N(C)[C@H]3[C@@](O)(C(N)=O)[C@H](O)[C@]5(CC)C=CCN6CC[C@]43[C@@H]65)C2)C1 | Vero-E6 | 9.74
O=C([O-])[C@H](O)[C@@H](O)[C@H](O)[C@H](O)CO | Vero-E6 | -4.67
O=C([O-])[C@H](O)[C@@H](O)[C@H](O)[C@H](O)C(O)CO (some centres unmarked) | Vero-E6 | -2.51
Nc1nc(=O)c2c([nH]1)NC[C@H](CNc1ccc(C(=O)N[C@@H](CCC(=O)[O-])C(=O)[O-])cc1)N2C=O | Vero-E6 | -7.53
CC(=O)O.CC(=O)O.N.NC1CCCCC1.[Cl][Pt][Cl] | Vero-E6 | -1.8
CCCC(CCC)C(=O)[O-] | Vero-E6 | -5.85
CO[C@@]12[C@@H]3NC3CN1C1=C(C(=O)C(N)=C(C)C1=O)[C@@H]2COC(N)=O (some centres unmarked) | Vero-E6 | 0.39
Nc1ncccc1-c1nc2ccc(-c3ccccc3)nc2n1-c1ccc(C2(N)CCC2)cc1 | Vero-E6 | 91.9
CCCCc1oc2ccccc2c1C(=O)c1cc(I)c(OCCN(CC)CC)c(I)c1 | Vero-E6 | 55.1
CN(C)CCCO[C@@H]1[C@H]2OC(C)(C)O[C@H]2O[C@@H]1[C@H](O)CO | Vero-E6 | -8.5
Clc1ccc(C(OCCN2CCCCC2)c2ccccc2)cc1 (centres unmarked) | Vero-E6 | 63.9
C=CCN1CC[C@@]2(C)c3cc(O)ccc3C[C@H]1[C@H]2C | Vero-E6 | -0.02
CCc1oc2ccccc2c1C(=O)c1cc(Br)c(O)c(Br)c1 | Vero-E6 | 0.74
COc1cc(N2CCC(N3CCN(C)CC3)CC2)ccc1Nc1ncc(Cl)c(Nc2ccccc2P(C)(C)=O)n1 | Vero-E6 | -0.55
COc1cc(N2CCC(N)CC2)ccc1Nc1ncc(Cl)c(-c2c[nH]c3ccccc23)n1 | Vero-E6 | 15.8
CNCCC(Oc1ccc(C(F)(F)F)cc1)c1ccccc1 (centres unmarked) | Vero-E6 | 54.3
CN(CCOc1ccc(NS(C)(=O)=O)cc1)CCc1ccc(NS(C)(=O)=O)cc1 | Vero-E6 | -1.68
C[N+]1(C)[C@@H]2C[C@@H](OC(=O)C(O)(c3cccs3)c3cccs3)C[C@H]1[C@@H]1O[C@@H]12 | Vero-E6 | -2.59
C(=C\c1ccccc1)/CN1CCN(CCOC(c2ccccc2)c2ccccc2)CC1 | Vero-E6 | 7.08
O=C1NNc2nc(CN3Cc4ccccc4C3)nc3cccc1c23 | Vero-E6 | 0.43
CNCCC=C1c2ccccc2CCc2ccccc21 | Vero-E6 | 64.4

Source of measurements: paper PMC13083723
